Quick reference: GI50 of the listed items.
# Test system: SN12C
# Assay Comment: Cytotoxicity against human SN12C cells
# Assay type: functional
# number only, unit nM dropped from output

[
  {
    "Molecule Smiles": "COc1cc2c(cc1O)-c1c(c3ccc([N+](=O)[O-])cc3c(=O)n1CCCN1CCOCC1)C2=O",
    "Measured On": "SN12C",
    "Unit Info": "nM",
    "GI50": 63
  },
  {
    "Molecule Smiles": "COc1cc2c(cc1O)-c1c(c3ccc([N+](=O)[O-])cc3c(=O)n1CCCN)C2=O",
    "Measured On": "SN12C",
    "Unit Info": "nM",
    "GI50": 450
  },
  {
    "Molecule Smiles": "COc1cc2c(cc1O)-c1c(c3ccc([N+](=O)[O-])cc3c(=O)n1CCCn1ccnc1)C2=O",
    "Measured On": "SN12C",
    "Unit Info": "nM",
    "GI50": 51
  },
  {
    "Molecule Smiles": "NCCCn1c2c(c3ccc([N+](=O)[O-])cc3c1=O)C(=O)c1c(O)cccc1-2",
    "Measured On": "SN12C",
    "Unit Info": "nM",
    "GI50": 3400
  }
]

Now for the compound whose GI50 we want.
Per the records, this compound ( `NCCCn1c2c(c3ccc([N+](=O)[O-])cc3c1=O)C(=O)c1cc(O)ccc1-2` ) has GI50 equal to 46
